Assignment: determine reported Relative KD for the given binders.
# test-target: T1, full length recombinant human 2N4R tau (amino acids 1-441) (human, UniProt P10636 1-758)
# T1 construct: Bought (rPeptide); recombinant, non-phosphorylated; also called recombinant tau
# T1 sequence (P10636 other isoform, or with tags, fused parts or gaps limits assumed): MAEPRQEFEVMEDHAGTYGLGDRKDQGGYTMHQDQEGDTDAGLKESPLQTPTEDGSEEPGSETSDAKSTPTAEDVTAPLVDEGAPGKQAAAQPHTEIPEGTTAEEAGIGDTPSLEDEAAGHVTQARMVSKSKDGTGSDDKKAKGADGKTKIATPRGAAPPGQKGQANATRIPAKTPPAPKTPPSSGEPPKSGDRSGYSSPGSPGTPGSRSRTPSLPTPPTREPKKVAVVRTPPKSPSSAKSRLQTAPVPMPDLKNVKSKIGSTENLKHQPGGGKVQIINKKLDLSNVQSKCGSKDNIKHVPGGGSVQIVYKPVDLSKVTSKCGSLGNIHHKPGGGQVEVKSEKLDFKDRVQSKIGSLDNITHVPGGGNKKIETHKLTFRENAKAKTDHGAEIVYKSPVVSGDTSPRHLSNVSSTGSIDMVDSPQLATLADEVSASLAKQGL
# method-notes: SPR Biacore SCK, IgG on Protein A, tau analyte
Give bare numbers, in fold vs VH0VK0.

Clone 26 (VH4Vκ1), humanised variant of clone #28, human IgG1 (antibody, V domains shown, also called VH4VK1) VH: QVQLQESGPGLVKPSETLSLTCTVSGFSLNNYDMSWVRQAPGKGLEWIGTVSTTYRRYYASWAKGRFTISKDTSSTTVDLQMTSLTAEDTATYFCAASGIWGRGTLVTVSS VL: AQVLTQSTSPLSASVGDRVTITCQSSQRVYSNYLAWYQQKPGQPPKRLIFLASTLESGVPSRFSGSGSGTEFTLTISSLQCDDFATYYCAGTYTGSIWAFGGGTEVVIK: 1.27

Relative KD measured on Clone 30 (VH5Vκ1), humanised variant of clone #28, human IgG1 (antibody, V domains shown, also called VH5VK1) VH: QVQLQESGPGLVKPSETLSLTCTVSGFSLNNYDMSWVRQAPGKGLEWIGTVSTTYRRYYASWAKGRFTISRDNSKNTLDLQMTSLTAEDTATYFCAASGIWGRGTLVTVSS VL: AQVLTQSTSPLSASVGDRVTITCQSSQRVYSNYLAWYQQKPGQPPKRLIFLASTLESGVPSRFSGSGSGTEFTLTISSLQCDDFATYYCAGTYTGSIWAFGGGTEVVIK = 1.67
